Provide the recorded viability at 20 h, 10 µM for the entries that follow.
PROTOCOL_NOTES: Cytotoxicity against Balb/c mouse BMDC assessed as cell viability at 10 uM incubated for 20 hrs by MTT assay (reference value: 100 +/-0.6%)
Format: toxicity, cell-based
CONDITION_DESCRIPTION: BMDC (bone marrow-derived dendritic cells), read-out: Activity
One number for each entry, in %.

Field: viability at 20 h, 10 µM. Fill in for each record below.
1. CCOC(=O)c1c(NS(=O)(=O)c2cccc3nsnc23)sc(Br)c1C
2. CCOC(=O)c1c(NS(=O)(=O)c2cccc3nsnc23)sc(C)c1CC
3. CCOC(=O)c1c(NS(=O)(=O)c2ccc(Br)c3nsnc23)sc(C)c1C

Solution:
1. 104
2. 100
3. 96.3
